# experimentDescription: Stability in artificial gastric acid at 1 mg/ml assessed as residual rate after 2 hrs by HPLC analysis relative to control
# Type: ADME
# conditions: read-out: Stability
parameter: remaining at 2 h, 1 mg/ml (%)
Give bare numbers, in %.

Consider the following items and state reported remaining at 2 h, 1 mg/ml for each.
1. CC(=O)NC[C@H]1CN(c2ccc(-c3ccc(/C=C/C(=O)N4CCNCC4)cc3)c(F)c2)C(=O)O1
2. CC(=O)NC[C@H]1CN(c2ccc(-c3ccc(/C=N/N4CCN(C)CC4)cc3)c(F)c2)C(=O)O1

[A]
[91.7, 16.1]
